Cited source for all entries: ChEMBL document CHEMBL1130358

Recorded IC50 for the following compounds
Biological target: Protein farnesyltransferase (Bos taurus, UniProt P29702+P49355)
Experiment: Inhibition of the Farnesyltransferase catalyzed incorporation of [3H]FPP into recombinant Ha-Ras by 50% in bovine brain at a concentration of ca. 1 nM.
// units = µM; emit number, no label

| CHEMICAL SMILES | TARGET OR TEST SYSTEM | MEASURED PARAMETER | UNIT DESCRIPTOR | DATA VALUE |
| --- | --- | --- | --- | --- |
| Cc1cccc(Oc2cccc(NC[C@@H](N)CS)c2)c1 | Protein farnesyltransferase (Bos taurus, UniProt P29702+P49355) | IC50 | µM | 0.33 |

Short answer please: IC50, Protein farnesyltransferase (Bos taurus, UniProt P29702+P49355), entry COC(=O)c1cccc(Oc2ccc(NC(=O)[C@@H](N)CS)cc2)c1
45

###

Molecular target: Protein farnesyltransferase (Bos taurus, UniProt P29702+P49355)
Assay: Inhibition of the Farnesyltransferase catalyzed incorporation of [3H]FPP into recombinant Ha-Ras by 50% in bovine brain at a concentration of ca. 1 nM.
Parameter pIC50: see the listing below.
Expect pIC50 as a plain number equal to -log10 of the molar concentration.

Consider the following illustrative entries.
| CHEMICAL SMILES | TARGET OR TEST SYSTEM | MEASURED PARAMETER | DATA VALUE |
| --- | --- | --- | --- |
| COC(=O)c1cccc(Oc2cccc(NC(=O)[C@@H](N)CS)c2)c1 | Protein farnesyltransferase (Bos taurus, UniProt P29702+P49355) | pIC50 | 4.35 |
| N[C@@H](CS)CNc1ccc(Oc2cccc(C(=O)O)c2)cc1 | Protein farnesyltransferase (Bos taurus, UniProt P29702+P49355) | pIC50 | 6.39 |
| N[C@@H](CS)CNc1cccc(Oc2ccc(C(=O)O)cc2)c1 | Protein farnesyltransferase (Bos taurus, UniProt P29702+P49355) | pIC50 | 5.42 |

// moving on: another record for pIC50
// fetch Protein farnesyltransferase (Bos taurus, UniProt P29702+P49355) pIC50 for N[C@@H](CS)CNc1cccc(Oc2cccc(C(=O)O)c2)c1
6.60

###

Molecular target: Geranylgeranyl transferase type I (Bos taurus, UniProt P29702+Q5EAD5)
Assay: Inhibition of Geranylgeranyl transferase type I, an enzyme that recognizes CaaX sequences containing leucine as the terminal residue.
# maps each entry to its pIC50
Friendly reminder that pIC50 comes from taking -log10 of the concentration in mol/L.

Query the reported pIC50 for Geranylgeranyl transferase type I (Bos taurus, UniProt P29702+Q5EAD5); item: COC(=O)c1cccc(Oc2ccc(NC[C@@H](N)CS)cc2)c1
5.64

Item N[C@@H](CS)CNc1ccc(Oc2ccccc2)cc1 with Geranylgeranyl transferase type I (Bos taurus, UniProt P29702+Q5EAD5) - pIC50?
5.30

Form: Entry = N[C@@H](CS)CNc1cccc(Oc2cccc(C(=O)O)c2)c1 | System = Geranylgeranyl transferase type I (Bos taurus, UniProt P29702+Q5EAD5) | pIC50 = ____
5.24

###

A collection of molecules and their measured IC90
Tested on: Rat1
Assay: 90% reduction in v-Ha-ras (Ras2B) transformed RAT1 cell colony size and number in soft agar assay
Assay type: functional
Details: Rattus norvegicus

# annotated cases, reported IC90 shown
| CHEMICAL SMILES | IC90 |
| --- | --- |
| N[C@@H](CS)CNc1ccc(Oc2cccc(C(=O)O)c2)cc1 | > 50 µM |
| N[C@@H](CS)CNc1ccc(Oc2cccc(CO)c2)cc1 | ~30 µM |

Continue with the next molecule.
What IC90 value was documented for this molecule, N[C@@H](CS)CNc1cccc(Oc2cccc(C(=O)O)c2)c1 ?
> 50 µM
